Molecular target: acetylcholinesterase from eel (Electrophorus electricus, UniProt O42275)
Construct: purchased Sigma
Sequence (O42275 24-633): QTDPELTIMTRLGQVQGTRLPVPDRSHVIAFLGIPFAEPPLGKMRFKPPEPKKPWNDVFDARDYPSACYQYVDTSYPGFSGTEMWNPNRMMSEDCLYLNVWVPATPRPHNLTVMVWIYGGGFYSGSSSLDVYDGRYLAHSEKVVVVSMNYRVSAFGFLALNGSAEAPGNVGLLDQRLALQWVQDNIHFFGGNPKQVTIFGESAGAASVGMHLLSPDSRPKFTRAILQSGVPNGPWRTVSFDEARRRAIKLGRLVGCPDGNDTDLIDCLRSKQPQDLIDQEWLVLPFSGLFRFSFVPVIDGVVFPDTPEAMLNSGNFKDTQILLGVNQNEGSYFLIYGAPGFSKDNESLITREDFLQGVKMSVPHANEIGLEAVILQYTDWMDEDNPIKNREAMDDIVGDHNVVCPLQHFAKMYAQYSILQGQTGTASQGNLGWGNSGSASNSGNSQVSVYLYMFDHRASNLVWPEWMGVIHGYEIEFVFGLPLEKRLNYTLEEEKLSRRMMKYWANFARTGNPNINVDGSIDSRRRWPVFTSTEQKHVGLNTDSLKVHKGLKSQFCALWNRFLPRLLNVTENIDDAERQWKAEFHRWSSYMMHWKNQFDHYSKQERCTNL
Assay: Acetylcholinesterase (AChE) inhibition (Ellman)
Assay type: biochemical
Conditions: read-out: AChE Inhibition (%), 300 μM compound

>  <COMPOUND>
O=C(/C=C/c1ccccc1)N1CCSC(c2ccc(-c3ccccc3)cc2)C1 (stereo not shown) [Compound 8]

>  <inhibition at 300 µM [%]>
19

$$$$
>  <COMPOUND>
CC(C)(C)c1cc(C(=O)N2CC(c3ccc(-c4ccccc4)cc3)Sc3ccccc32)cc(C(C)(C)C)c1O (stereo not shown) [Compound 15]

>  <inhibition at 300 µM [%]>
23

$$$$
>  <COMPOUND>
COc1ccc(/C=C/C(=O)N2CCSC(c3ccc(-c4ccccc4)cc3)C2)cc1OC (stereo not shown) [Compound 2]

>  <inhibition at 300 µM [%]>
26

$$$$
>  <COMPOUND>
O=C(c1cc(O)c(O)c(O)c1)N1CCSC(c2ccc(-c3ccccc3)cc2)C1 (stereo not shown) [Compound 3]

>  <inhibition at 300 µM [%]>
10

$$$$
>  <COMPOUND>
CC(C)(C)c1cc(/C=C/C(=O)N2CC(c3ccc(-c4ccccc4)cc3)Sc3ccccc32)cc(C(C)(C)C)c1O (stereo not shown) [Compound 16]

>  <inhibition at 300 µM [%]>
24

$$$$
>  <COMPOUND>
COc1cc(/C=C/C(=O)N2CCSC(c3ccc(-c4ccccc4)cc3)C2)ccc1O (stereo not shown) [Compound 1]

>  <inhibition at 300 µM [%]>
22

$$$$
>  <COMPOUND>
CC(C)Cc1ccc(C(C)C(=O)N2CCSC(c3ccc(-c4ccccc4)cc3)C2)cc1 (stereo not shown) [Compound 7]

>  <inhibition at 300 µM [%]>
27

$$$$
>  <COMPOUND>
CC(C)Cc1ccc(C(C)C(=O)N2CC(c3ccc(-c4ccccc4)cc3)Sc3ccccc32)cc1 (stereo not shown) [Compound 17]

>  <inhibition at 300 µM [%]>
13

$$$$
>  <COMPOUND>
COc1ccc(/C=C/C(=O)N2CC(c3ccc(-c4ccccc4)cc3)Sc3ccccc32)cc1OC (stereo not shown) [Compound 12]

>  <inhibition at 300 µM [%]>
17

$$$$
>  <COMPOUND>
CC(C)(C)c1cc(C(=O)N2CCSC(c3ccc(-c4ccccc4)cc3)C2)cc(C(C)(C)C)c1O (stereo not shown) [Compound 5]

>  <inhibition at 300 µM [%]>
24

$$$$
>  <COMPOUND>
O=C(c1cccnc1)N1CCSC(c2ccc(-c3ccccc3)cc2)C1 (stereo not shown) [Compound 9]

>  <inhibition at 300 µM [%]>
33

$$$$
>  <COMPOUND>
COc1cc(C(=O)N2CCSC(c3ccc(-c4ccccc4)cc3)C2)cc(OC)c1OC (stereo not shown) [Compound 4]

>  <inhibition at 300 µM [%]>
30

$$$$

====

System: mouse liver microsomal lipid peroxidation
Assay: Inhibition of mouse liver microsomal lipid peroxidation (LP)
Details: read-out: LP IC50 Value; 45 min incubation
Measured IC50 by item

>  <MOLECULE>
CC(C)Cc1ccc(C(C)C(=O)N2CCSC(c3ccc(-c4ccccc4)cc3)C2)cc1 (centres unmarked)

>  <EXPERIMENTAL_SYSTEM>
mouse liver microsomal lipid peroxidation

>  <IC50>
299 µM

$$$$
>  <MOLECULE>
COc1ccc(/C=C/C(=O)N2CCSC(c3ccc(-c4ccccc4)cc3)C2)cc1OC (centres unmarked)

>  <EXPERIMENTAL_SYSTEM>
mouse liver microsomal lipid peroxidation

>  <IC50>
> 1000 µM

$$$$
>  <MOLECULE>
COc1cc(C(=O)N2CCSC(c3ccc(-c4ccccc4)cc3)C2)cc(OC)c1OC (centres unmarked)

>  <EXPERIMENTAL_SYSTEM>
mouse liver microsomal lipid peroxidation

>  <IC50>
> 500 µM

$$$$
>  <MOLECULE>
COc1ccc(/C=C/C(=O)N2CC(c3ccc(-c4ccccc4)cc3)Sc3ccccc32)cc1OC (centres unmarked)

>  <EXPERIMENTAL_SYSTEM>
mouse liver microsomal lipid peroxidation

>  <IC50>
> 1000 µM

$$$$
>  <MOLECULE>
COc1cc(C(=O)N2CC(c3ccc(-c4ccccc4)cc3)Sc3ccccc32)cc(OC)c1OC (centres unmarked)

>  <EXPERIMENTAL_SYSTEM>
mouse liver microsomal lipid peroxidation

>  <IC50>
> 1000 µM

$$$$
>  <MOLECULE>
CC(C)(C)c1cc(/C=C/C(=O)N2CC(c3ccc(-c4ccccc4)cc3)Sc3ccccc32)cc(C(C)(C)C)c1O (centres unmarked)

>  <EXPERIMENTAL_SYSTEM>
mouse liver microsomal lipid peroxidation

>  <IC50>
> 1000 µM

$$$$
>  <MOLECULE>
CC(C)Cc1ccc(C(C)C(=O)N2CC(c3ccc(-c4ccccc4)cc3)Sc3ccccc32)cc1 (centres unmarked)

>  <EXPERIMENTAL_SYSTEM>
mouse liver microsomal lipid peroxidation

>  <IC50>
> 1000 µM

$$$$
>  <MOLECULE>
Cc1c(C)c2c(c(C)c1O)CCC(C)(C(=O)N1CCSC(c3ccc(-c4ccccc4)cc3)C1)O2 (centres unmarked)

>  <EXPERIMENTAL_SYSTEM>
mouse liver microsomal lipid peroxidation

>  <IC50>
4 µM

$$$$
